Each recorded value in this set is attributed to ChEMBL document CHEMBL1157022.

Tested on: Nucleic Acid
assay: Binding affinity to calf thymus DNA assessed as temperature required to cause 50% of DNA denatured at 10 uM by thermal denaturation assay
Assay type: nucleic-acid assay
test-parameters: Bos taurus
Task for the reader: assign each of the following compounds its reported Tm.
Write it as a number; the unit °C goes unstated.

Ask: Requested field: Tm. Item: Br.O=C1c2cccc3cccc(c23)C(=O)N1CCCNCCOCCOCCNCCCN1C(=O)c2cccc3cccc(c23)C1=O
Reply: 87.9

Ask: What value of Tm has been reported for the following compound? O=C1c2c(O)ccc(O)c2C(=O)c2c(NCCNCCO)ccc(NCCNCCO)c21
Reply: 91

Ask: Give the measured Tm of O=C1c2cccc3cccc(c23)C(=O)N1CCCNCCCCCCCCCCNCCCN1C(=O)c2cccc3cccc(c23)C1=O .
Reply: 84.4

Ask: What does the record list as Tm for O=C1c2cccc3cccc(c23)C(=O)N1CCCNC1CCCC(CC2CCCC(NCCCN3C(=O)c4cccc5cccc(c45)C3=O)C2)C1 (stereo not given) ?
Reply: 87.4

Ask: Data request, read-out Tm, for O=C1c2cccc3cccc(c23)C(=O)N1CCCNCCCCCCNCCCN1C(=O)c2cccc3cccc(c23)C1=O
Reply: 91.9

====

Tested on: MDA-MB-231
assay: Cytotoxicity against human MDA-MB-231 cells after 24 hrs by MTT assay
Assay type: functional, cell-based
test-parameters: MDA-MB-231, 24 h
experimental-endpoint: IC50 (µM)
Output spec: scalar in µM, unitless text.

Ask: # get_value(readout='IC50', item= O=C1c2cccc3cccc(c23)C(=O)N1CCCNCCCCNCCCN1C(=O)c2cccc3cccc(c23)C1=O )
Reply: 7.86

Ask: // returns reported IC50 for input Br.O=C1c2cccc3cccc(c23)C(=O)N1CCCNCCOCCOCCNCCCN1C(=O)c2cccc3cccc(c23)C1=O
Reply: 12.4

Ask: Data request, read-out IC50, for O=C1c2cccc3cccc(c23)C(=O)N1CCCNCCCCCCNCCCN1C(=O)c2cccc3cccc(c23)C1=O
Reply: 7.22

Ask: Dear colleague, I am looking for the recorded IC50 of the following compound: Br.O=C1c2cccc3cccc(c23)C(=O)N1CCCNCCCCNCCCNCCCN1C(=O)c2cccc3cccc(c23)C1=O
Reply: 12.7
